# tgt: HLA-A*23:01
# assay-details: IEDB peptide-MHC binding, purified MHC/direct/fluorescence; filed as Kd, often an IC50 or EC50 that approximates it; bounds were set here for any values at or beyond the usual limits of such assays
# details: source organism: dengue virus type 2
measured-property: pKd
# pKd: negative log10 of molar concentration; output just the value

The recorded pKd for entry GFLNEDHWF equals 7.61

====

# tgt: HLA-B*15:03
# assay-details: IEDB peptide-MHC binding, purified MHC/competitive/radioactivity; filed as Kd, often an IC50 or EC50 that approximates it; bounds were set here for any values at or beyond the usual limits of such assays
# details: source organism: Vaccinia virus Copenhagen
measured-property: Kd (nM)
I only need the number, in nM, no unit after it.

The recorded Kd for entry VSFNRVVIF equals 1.05

====

# tgt: HLA-B*51:01
# assay-details: IEDB peptide-MHC binding, purified MHC/competitive/radioactivity; filed as Kd, often an IC50 or EC50 that approximates it; bounds were set here for any values at or beyond the usual limits of such assays
# details: source organism: Vaccinia virus WR
measured-property: Kd

The recorded Kd for entry RPKILSMINY equals 8.9 µM

The recorded Kd for entry LMYDIINSV equals ≥ 54.5 µM

The recorded Kd for entry VPNITISSNA equals ≥ 69.6 µM

====

# tgt: HLA-A*69:01
# assay-details: IEDB peptide-MHC binding, purified MHC/competitive/fluorescence; filed as Kd, often an IC50 or EC50 that approximates it; bounds were set here for any values at or beyond the usual limits of such assays
# details: source organism: Vibrio parahaemolyticus AQ3810
pKd: −log10 of the molar value.
measured-property: pKd

The recorded pKd for entry HFIYHKREK equals ≤ 4.70

====

# tgt: HLA-A*02:03
# assay-details: IEDB peptide-MHC binding, purified MHC/direct/fluorescence; filed as Kd, often an IC50 or EC50 that approximates it; bounds were set here for any values at or beyond the usual limits of such assays
# details: source organism: Yersinia enterocolitica subsp. enterocolitica 8081
measured-property: Kd

The recorded Kd for entry LAYLAGWII equals ≥ 20 µM

====

# tgt: HLA-C*05:01
# assay-details: IEDB peptide-MHC binding, purified MHC/direct/fluorescence; filed as Kd, often an IC50 or EC50 that approximates it; bounds were set here for any values at or beyond the usual limits of such assays
# details: source organism: Mycobacterium tuberculosis H37Ra
measured-property: Kd (nM)
I only need the number, in nM, no unit after it.

So the reported Kd for VLSDINAVF , on HLA-C*05:01, turned out to be 9

====

# tgt: HLA-A*30:01
# assay-details: IEDB peptide-MHC binding, purified MHC/competitive/radioactivity; filed as Kd, often an IC50 or EC50 that approximates it; bounds were set here for any values at or beyond the usual limits of such assays
# details: source organism: Mammarenavirus whitewaterense
measured-property: Kd (µM)
I only need the number, in µM, no unit after it.

The recorded Kd for entry YVNHTGFNV equals 1.24

====

# tgt: HLA-A*02:01
# assay-details: IEDB peptide-MHC binding, purified MHC/competitive/fluorescence; bounds were set here for any values at or beyond the usual limits of such assays
# details: source organism: Homo sapiens
pIC50: −log10 of the molar value.
measured-property: pIC50

The recorded pIC50 for entry RVRFFFPSL equals ≤ 3.70

====

# tgt: HLA-A*02:06
# assay-details: IEDB peptide-MHC binding, purified MHC/competitive/radioactivity; filed as Kd, often an IC50 or EC50 that approximates it; bounds were set here for any values at or beyond the usual limits of such assays
# details: source organism: Homo sapiens
pKd: −log10 of the molar value.
measured-property: pKd

The recorded pKd for entry EMETLQSQL equals ≤ 4.21

The recorded pKd for entry DLEDLKDQI equals ≤ 4.10

====

# tgt: HLA-B*07:02
# assay-details: IEDB peptide-MHC binding, purified MHC/competitive/radioactivity; filed as Kd, often an IC50 or EC50 that approximates it; bounds were set here for any values at or beyond the usual limits of such assays
# details: source organism: Lymphocytic choriomeningitis virus (strain Armstrong)
measured-property: Kd (nM)
I only need the number, in nM, no unit after it.

The recorded Kd for entry GPMMCPFLF equals 143

====

# tgt: HLA-A*02:11
# assay-details: IEDB peptide-MHC binding, purified MHC/direct/fluorescence; filed as Kd, often an IC50 or EC50 that approximates it; bounds were set here for any values at or beyond the usual limits of such assays
# details: source organism: Choclo virus
pKd: −log10 of the molar value.
measured-property: pKd

The recorded pKd for entry LPSSSSYSY equals ≤ 4.70

====

# tgt: HLA-B*07:02
# assay-details: IEDB peptide-MHC binding, purified MHC/competitive/radioactivity; filed as Kd, often an IC50 or EC50 that approximates it; bounds were set here for any values at or beyond the usual limits of such assays
# details: source organism: Mammarenavirus choriomeningitidis
measured-property: pKd
# pKd: negative log10 of molar concentration; output just the value

The recorded pKd for entry LPIFSDAAL equals 7.66

The recorded pKd for entry MPSEDGAEDL equals 5.73

====

# tgt: HLA-A*69:01
# assay-details: IEDB peptide-MHC binding, purified MHC/direct/fluorescence; filed as Kd, often an IC50 or EC50 that approximates it; bounds were set here for any values at or beyond the usual limits of such assays
# details: source organism: H9N2 subtype Influenza A virus (A/swine/Korea/S83/2004(H9N2))
pKd: −log10 of the molar value.
measured-property: pKd

The recorded pKd for entry FQKDAKVLF equals ≤ 4.70

====

# tgt: HLA-C*05:01
# assay-details: IEDB peptide-MHC binding, purified MHC/direct/fluorescence; filed as Kd, often an IC50 or EC50 that approximates it; bounds were set here for any values at or beyond the usual limits of such assays
# details: source organism: Homo sapiens
measured-property: pKd
# pKd: negative log10 of molar concentration; output just the value

The recorded pKd for entry VTDTALAYF equals 8.30

====

# tgt: HLA-A*24:02
# assay-details: IEDB peptide-MHC binding, purified MHC/competitive/radioactivity; filed as Kd, often an IC50 or EC50 that approximates it; bounds were set here for any values at or beyond the usual limits of such assays
# details: source organism: Dengue virus 3 Martinique/1243/1999
measured-property: Kd (µM)
I only need the number, in µM, no unit after it.

The recorded Kd for entry IKYTDRKWCF equals 2.37

====

# tgt: HLA-A*02:16
# assay-details: IEDB peptide-MHC binding, purified MHC/competitive/fluorescence; filed as Kd, often an IC50 or EC50 that approximates it; bounds were set here for any values at or beyond the usual limits of such assays
# details: source organism: Mycobacterium tuberculosis C
measured-property: Kd

The recorded Kd for entry SLVAIHLAC equals ≥ 20 µM

====

# tgt: HLA-B*57:01
# assay-details: IEDB peptide-MHC binding, purified MHC/competitive/fluorescence; filed as Kd, often an IC50 or EC50 that approximates it; bounds were set here for any values at or beyond the usual limits of such assays
# details: source organism: Brucella abortus S19
measured-property: Kd

The recorded Kd for entry KQWIVAGAI equals ≥ 20 µM

====

# tgt: HLA-B*45:01
# assay-details: IEDB peptide-MHC binding, purified MHC/competitive/radioactivity; filed as Kd, often an IC50 or EC50 that approximates it; bounds were set here for any values at or beyond the usual limits of such assays
# details: source organism: Mammarenavirus guanaritoense
measured-property: Kd (nM)
I only need the number, in nM, no unit after it.

The recorded Kd for entry FEEALNVALA equals 89.3

====

# tgt: HLA-A*33:01
# assay-details: IEDB peptide-MHC binding, purified MHC/competitive/radioactivity; filed as Kd, often an IC50 or EC50 that approximates it; bounds were set here for any values at or beyond the usual limits of such assays
# details: source organism: Dengue virus 1 Brazil/97-11/1997
measured-property: Kd (nM)
I only need the number, in nM, no unit after it.

The recorded Kd for entry SFNMLKRAR equals 10

The recorded Kd for entry DLISYGGGWR equals 1390

====

# tgt: HLA-A*11:01
# assay-details: IEDB peptide-MHC binding, purified MHC/competitive/radioactivity; filed as Kd, often an IC50 or EC50 that approximates it; bounds were set here for any values at or beyond the usual limits of such assays
# details: source organism: Vaccinia virus WR
pKd: −log10 of the molar value.
Think of 8 as a floor: if pKd stands on it or above, it is true (1); beneath it, false (0).

Task item: Assess whether reported pKd for MQKFTILEY sits at 8 or higher.
Reply: false (0)

Task item: Assess whether reported pKd for NFEALEATK sits at 8 or higher.
Reply: false (0)

Task item: Assess whether reported pKd for LLLPSTDVNK sits at 8 or higher.
Reply: false (0)

Task item: Assess whether reported pKd for NLEMIDERK sits at 8 or higher.
Reply: false (0)

Task item: Assess whether reported pKd for FSCGLSLQDY sits at 8 or higher.
Reply: false (0)

Task item: Assess whether reported pKd for IIFLKLFKK sits at 8 or higher.
Reply: true (1)
